Cited source for all entries: patent US20050009840A1

Molecular target: HGFR (Homo sapiens, UniProt P08581)
Construct: purchased Upstate 14-526
Sequence (P08581 974-1390 limits assumed): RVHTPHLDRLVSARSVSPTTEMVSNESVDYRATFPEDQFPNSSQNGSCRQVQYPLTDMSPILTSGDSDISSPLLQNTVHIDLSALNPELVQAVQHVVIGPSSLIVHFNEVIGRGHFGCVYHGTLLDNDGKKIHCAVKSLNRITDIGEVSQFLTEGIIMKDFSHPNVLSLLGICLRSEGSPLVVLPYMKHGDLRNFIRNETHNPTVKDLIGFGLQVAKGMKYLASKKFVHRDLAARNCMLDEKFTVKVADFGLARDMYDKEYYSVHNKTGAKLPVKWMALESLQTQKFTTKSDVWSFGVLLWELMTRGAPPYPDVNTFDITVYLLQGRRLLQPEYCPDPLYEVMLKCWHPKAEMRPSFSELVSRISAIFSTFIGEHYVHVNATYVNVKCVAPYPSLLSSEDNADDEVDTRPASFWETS
Assay: HGFR continuous-coupled spectrophotometric assay
Type: biochemical
Conditions: at 1 μM; Table 8, library procedure 43; read-out: % Inhibition (percent c-MET inhibition)
inhibition at 1 µM values by entry

{"Compound": "CC1CN(C(=O)c2ccc(-c3cnc(N)c(OCc4cccc(Cl)c4Cl)c3)cc2)CC(C)N1 (stereo not shown)", "inhibition at 1 µM (%)": 40}
{"Compound": "CC1CN(C(=O)c2ccc(-c3cnc(N)c(OCc4ccc(S(=O)(=O)N5CCOCC5)cc4)c3)cc2)CC(C)N1 (stereo not shown)", "inhibition at 1 µM (%)": 13}
{"Compound": "Cc1ccc(COc2cc(-c3ccc(C(=O)N4CC(C)NC(C)C4)cc3)cnc2N)c(F)c1F (stereo not shown)", "inhibition at 1 µM (%)": 37}
{"Compound": "CC1CN(C(=O)c2ccc(-c3cnc(N)c(OCc4nnnn4Cc4ccccc4)c3)cc2)CC(C)N1 (stereo not shown)", "inhibition at 1 µM (%)": 15}
{"Compound": "CC1CN(C(=O)c2ccc(-c3cnc(N)c(OCc4cc5c(C(F)(F)F)nn(C)c5s4)c3)cc2)CC(C)N1 (stereo not shown)", "inhibition at 1 µM (%)": 13}
{"Compound": "CC1CN(C(=O)c2ccc(-c3cnc(N)c(OCc4ccc(C(F)(F)F)c(F)c4)c3)cc2)CC(C)N1 (stereo not shown)", "inhibition at 1 µM (%)": 17}
{"Compound": "CC1CN(C(=O)c2ccc(-c3cnc(N)c(OCc4c(-c5ccccc5)nn(C)c4Cl)c3)cc2)CC(C)N1 (stereo not shown)", "inhibition at 1 µM (%)": 18}
{"Compound": "CC1CN(C(=O)c2ccc(-c3cnc(N)c(OCc4nc5ccccc5n4C)c3)cc2)CC(C)N1 (stereo not shown)", "inhibition at 1 µM (%)": 16}
{"Compound": "Cc1ccc(COc2cc(-c3ccc(C(=O)N4CC(C)NC(C)C4)cc3)cnc2N)cc1Cl (stereo not shown)", "inhibition at 1 µM (%)": 27}
{"Compound": "CC1CN(C(=O)c2ccc(-c3cnc(N)c(OCc4nccn4C)c3)cc2)CC(C)N1 (stereo not shown)", "inhibition at 1 µM (%)": 12}
{"Compound": "Cc1onc(-c2ccccc2)c1COc1cc(-c2ccc(C(=O)N3CC(C)NC(C)C3)cc2)cnc1N (stereo not shown)", "inhibition at 1 µM (%)": 16}
{"Compound": "CC1CN(C(=O)c2ccc(-c3cnc(N)c(OCc4cccc(Oc5ccccc5)c4)c3)cc2)CC(C)N1 (stereo not shown)", "inhibition at 1 µM (%)": 32}
{"Compound": "CC1CN(C(=O)c2ccc(-c3cnc(N)c(OCc4c(F)ccc(F)c4F)c3)cc2)CC(C)N1 (stereo not shown)", "inhibition at 1 µM (%)": 41}
{"Compound": "CC1CN(C(=O)c2ccc(-c3cnc(N)c(OCc4ccc(Cl)cc4Br)c3)cc2)CC(C)N1 (stereo not shown)", "inhibition at 1 µM (%)": 29}
{"Compound": "CC1CN(C(=O)c2ccc(-c3cnc(N)c(OCc4ccc(-c5ccccc5C#N)cc4)c3)cc2)CC(C)N1 (stereo not shown)", "inhibition at 1 µM (%)": 73}
{"Compound": "CC1CN(C(=O)c2ccc(-c3cnc(N)c(OCc4noc(-c5cccc(C(F)(F)F)c5)n4)c3)cc2)CC(C)N1 (stereo not shown)", "inhibition at 1 µM (%)": 30}
{"Compound": "Cc1ccc(F)cc1COc1cc(-c2ccc(C(=O)N3CC(C)NC(C)C3)cc2)cnc1N (stereo not shown)", "inhibition at 1 µM (%)": 28}
{"Compound": "Cc1nc(COc2cc(-c3ccc(C(=O)N4CC(C)NC(C)C4)cc3)cnc2N)n(C)n1 (stereo not shown)", "inhibition at 1 µM (%)": 13}
{"Compound": "CC1CN(C(=O)c2ccc(-c3cnc(N)c(OCc4ccc(Cl)c(Cl)c4)c3)cc2)CC(C)N1 (stereo not shown)", "inhibition at 1 µM (%)": 29}
{"Compound": "CC1CN(C(=O)c2ccc(-c3cnc(N)c(OCc4ccc(C(=O)NCCN5CCCC5)cc4)c3)cc2)CC(C)N1 (stereo not shown)", "inhibition at 1 µM (%)": 12}
{"Compound": "CC1CN(C(=O)c2ccc(-c3cnc(N)c(OCc4ccc(S(N)(=O)=O)cc4)c3)cc2)CC(C)N1 (stereo not shown)", "inhibition at 1 µM (%)": 16}
{"Compound": "CC1CN(C(=O)c2ccc(-c3cnc(N)c(OCc4cccc(C#N)c4)c3)cc2)CC(C)N1 (stereo not shown)", "inhibition at 1 µM (%)": 11}
{"Compound": "Cc1noc(C)c1-c1nc(COc2cc(-c3ccc(C(=O)N4CC(C)NC(C)C4)cc3)cnc2N)no1 (stereo not shown)", "inhibition at 1 µM (%)": 14}
{"Compound": "CC1CN(C(=O)c2ccc(-c3cnc(N)c(OCc4ccc(-c5ccnc(Br)n5)cc4)c3)cc2)CC(C)N1 (stereo not shown)", "inhibition at 1 µM (%)": 17}
{"Compound": "CC1CN(C(=O)c2ccc(-c3cnc(N)c(OCc4cc(Br)cc(Br)c4)c3)cc2)CC(C)N1 (stereo not shown)", "inhibition at 1 µM (%)": 42}
{"Compound": "CC1CN(C(=O)c2ccc(-c3cnc(N)c(OCc4c(F)cccc4C(F)(F)F)c3)cc2)CC(C)N1 (stereo not shown)", "inhibition at 1 µM (%)": 33}
{"Compound": "CC1CN(C(=O)c2ccc(-c3cnc(N)c(OCc4ccc(C(=O)N5CCN(Cc6ccccc6)CC5)cc4)c3)cc2)CC(C)N1 (stereo not shown)", "inhibition at 1 µM (%)": 15}
{"Compound": "CC1CN(C(=O)c2ccc(-c3cnc(N)c(OCc4cccc(C(=O)NCCc5ccccn5)c4)c3)cc2)CC(C)N1 (stereo not shown)", "inhibition at 1 µM (%)": 18}
{"Compound": "CC1CN(C(=O)c2ccc(-c3cnc(N)c(OCc4ccc(F)c(F)c4F)c3)cc2)CC(C)N1 (stereo not shown)", "inhibition at 1 µM (%)": 25}
{"Compound": "CC1CN(C(=O)c2ccc(-c3cnc(N)c(OCc4ccc(Br)cc4F)c3)cc2)CC(C)N1 (stereo not shown)", "inhibition at 1 µM (%)": 29}
{"Compound": "CC1CN(C(=O)c2ccc(-c3cnc(N)c(OCc4ccc(C(F)(F)F)cc4F)c3)cc2)CC(C)N1 (stereo not shown)", "inhibition at 1 µM (%)": 24}
{"Compound": "CC1CN(C(=O)c2ccc(-c3cnc(N)c(OCc4nc5ccc(Cl)cc5[nH]4)c3)cc2)CC(C)N1 (stereo not shown)", "inhibition at 1 µM (%)": 10}
{"Compound": "CCN1CCCC1CNC(=O)c1cccc(COc2cc(-c3ccc(C(=O)N4CC(C)NC(C)C4)cc3)cnc2N)c1 (stereo not shown)", "inhibition at 1 µM (%)": 10}
{"Compound": "CC1CN(C(=O)c2ccc(-c3cnc(N)c(OCc4ccccc4OC(F)(F)F)c3)cc2)CC(C)N1 (stereo not shown)", "inhibition at 1 µM (%)": 20}
